Molecular target: CCK receptor sites (Mus musculus, UniProt P56481)
Construct: from tissue; host or cells: cerebral cortex membranes of male CFLP mice
Sequence (P56481 1-453): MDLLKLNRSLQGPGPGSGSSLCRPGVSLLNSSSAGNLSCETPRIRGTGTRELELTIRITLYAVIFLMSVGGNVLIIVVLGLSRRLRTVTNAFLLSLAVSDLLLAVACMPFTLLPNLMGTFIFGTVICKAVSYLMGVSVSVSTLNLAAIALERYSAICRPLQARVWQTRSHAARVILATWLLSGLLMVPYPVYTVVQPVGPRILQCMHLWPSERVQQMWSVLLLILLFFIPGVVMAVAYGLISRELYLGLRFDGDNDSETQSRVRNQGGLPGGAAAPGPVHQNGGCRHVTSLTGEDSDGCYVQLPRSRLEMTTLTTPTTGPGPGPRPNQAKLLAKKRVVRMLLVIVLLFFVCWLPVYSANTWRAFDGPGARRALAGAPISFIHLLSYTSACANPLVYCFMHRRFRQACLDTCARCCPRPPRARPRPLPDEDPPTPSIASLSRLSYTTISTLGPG
Experiment: CCK receptor binding, displacement of tritiated pentagastrin from mouse cerebral cortex membranes
Conditions: 2 nM tritiated pentagastrin, mouse cerebral cortical membranes; Ki from IC50 by Cheng-Prusoff; read-out: Ki
pKi: −log10 of the molar value.
Listed below: pKi values for each entry.
endpoint_name: pKi

CC(Cc1c[nH]c2ncccc12)(NC(=O)OC1C2CC3CC(C2)CC1C3)C(=O)NC(CO)C(O)c1ccccc1 (stereo not shown) [drawing 66 (Diast II)] : 7.37
CC(Cc1ccnc2ccccc12)(NC(=O)OC1C2CC3CC(C2)CC1C3)C(=O)N[C@H](CO)Cc1ccccc1 (stereo partly shown) [drawing 40 (H H CH2 OH H H)] : 6.89
CC(Cc1n[nH]c2ccccc12)(NC(=O)OC1C2CC3CC(C2)CC1C3)C(=O)NCC(NC(=O)CCC(=O)O)c1ccccc1 (stereo not shown) [drawing 53 (H H H H NHCOCH2 CH2 COOH)] : 7.02
CC(Cc1n[nH]c2ccccc12)(NC(=O)OC1C2CC3CC(C2)CC1C3)C(=O)NCC(c1ccccc1)N1C(=O)CCC1=O (stereo not shown) [drawing 53/drawing 54 (Diast II)] : 6.66
CC(Cc1ccncc1)(NC(=O)OC1C2CC3CC(C2)CC1C3)C(=O)NCC(NC(=O)CCC(=O)O)c1ccccc1 (stereo not shown) : 6.66
CC(Cc1ccc2ccccc2n1)(NC(=O)OC1C2CC3CC(C2)CC1C3)C(=O)NCCc1ccccc1 (stereo not shown) [drawing 36 (H H H H H)] : 6.40
CC(CC1CCc2ccccc2N1)(NC(=O)OC1C2CC3CC(C2)CC1C3)C(=O)NCC(NC(=O)CCC(=O)O)c1ccccc1 (stereo not shown) : 6.16
CC(Cc1ccc2ccccc2n1)(NC(=O)OC1C2CC3CC(C2)CC1C3)C(=O)NCC(NC(=O)CCC(=O)O)c1ccccc1 (stereo not shown) : 6.54
CC(Cc1ccc2ccccc2n1)(NC(=O)OC1C2CC3CC(C2)CC1C3)C(=O)NC(CO)Cc1ccccc1 (stereo not shown) [drawing 43 (H H CH2 OH H H)] : 6.40
CC(Cc1c[nH]c2ccncc12)(NC(=O)OC1C2CC3CC(C2)CC1C3)C(=O)NC(CO)C(O)c1ccccc1 (stereo not shown) [drawing 69] : 5.64
CN1c2ccccc2C(c2ccccc2)=NCC1CC(C)(NC(=O)OC1C2CC3CC(C2)CC1C3)C(=O)NCC(NC(=O)CCC(=O)O)c1ccccc1 (stereo not shown) : 6.54
CC(Cc1c[nH]c2ncccc12)(NC(=O)OC1C2CC3CC(C2)CC1C3)C(=O)NC(CO)C(O)c1ccccc1 (stereo not shown) [drawing 66 (Diast I)] : 6.24
CC(Cc1n[nH]c2ccccc12)(NC(=O)OC1C2CC3CC(C2)CC1C3)C(=O)N[C@H](CO)Cc1ccccc1 (stereo partly shown) [drawing 38 (H H CH2 OH H H)] : 7.16
